# protocol: gradient 5% acetonitrile 3 min, to 50% in 2 min, to 85% in 15 min, held 3 min, 100 µL/min
# condition-label: column: Zorbax Extend-C18 2.1 x 50 mm; eluents: water / acetonitrile, 0.1% formic acid
property-name: RP-LC retention time (s)
Entry rule: numbers only, all in s.

The following compounds have reported results that may help.
{"compound": "CC(C)c1cccc(NC(=O)Cn2nc3n(c2=O)CCCCC3)c1", "RP-LC retention time / s": 700}
{"compound": "COc1ccc(OCc2noc(CNC(=O)C(C)n3nnc4ccccc4c3=O)n2)cc1 (stereo not drawn)", "RP-LC retention time / s": 768}

In: Tell us which RP-LC retention time value is on record for CCOC(=O)Cc1c(C)c2cc(C(=O)c3ccccc3)c(O)cc2oc1=O
Out: 768
